- MEASURED_ON: type A insulin receptor (IR-A) (Homo sapiens)
- Construct: expressed in transfected cells; host or cells: HEK293
- METHOD_DESCRIPTION: Receptor kinase activity (phosphorylation) assay, type A insulin receptor
- Format: cell-based
- EXPERIMENTAL_SETUP: Table 14
MEASURE_NAME: IR-A (%)
Return type: number; implicit unit %.

Please review the following examples before continuing.
SUBSTANCE	MEAS_VALUE
B^1(H5,10Y16L17K29)29:A^1(H8,N18,21) (chain 1 GPEHLCGAHLVDALYLVCGDRGFYFNKK; chain 2 GIVDECCHRSCDLRRLENYCN) [DP3(TC)]	159.8
B1,A14-10K B^1(H5,10Y16L17R29)29:A^1(H8K14N18,21) (chain 1 GPEHLCGAHLVDALYLVCGDRGFYFNKR; chain 2 GIVDECCHRSCDLKRLENYCN) [di-10K-TC]	6.4

Now let's try a different one.
Q: Kindly state the measured IR-A obtained for B^1(H5,10Y16L17R29)30-C^1des9-12-A^1(H8,K14,N18,21) (GPEHLCGAHLVDALYLVCGDRGFYFNKRTGYGSSSRRGIVDECCHRSCDLKRLENYCN) [DP8Mut3KA14] with type A insulin receptor (IR-A) (Homo sapiens).
Ans: 132.2

---

- MEASURED_ON: type A insulin receptor (IR-A) (Homo sapiens)
- Construct: expressed in transfected cells; host or cells: HEK293
- METHOD_DESCRIPTION: Receptor kinase activity (phosphorylation) assay, type A insulin receptor
- Format: cell-based
- EXPERIMENTAL_SETUP: Table 14
Documented IR-A across a set of substances
Note: state the figure and append the unit.

Please review the following examples before continuing.
SUBSTANCE	IR-A
B1,A14-10K B^1(H5,10Y16L17R29)30-C^1des9-12-A^1(H8,K14,N18,21) (GPEHLCGAHLVDALYLVCGDRGFYFNKRTGYGSSSRRGIVDECCHRSCDLKRLENYCN) [MIU-79]	1.7%
B^1(H5,10Y16L17K29)29-A^1(H8,N18,21) (GPEHLCGAHLVDALYLVCGDRGFYFNKKGIVDECCHRSCDLRRLENYCN) [DP3(SC)]	0.03%

Now let's try a different one.
Q: Value lookup for IR-A; key = B^1(H5,10Y16L17R29)30-C^1des9-12-A^1(H8,N18,21) (GPEHLCGAHLVDALYLVCGDRGFYFNKRTGYGSSSRRGIVDECCHRSCDLRRLENYCN) [MIU-43]
Ans: 97.5%

---

- MEASURED_ON: type A insulin receptor (IR-A) (Homo sapiens, UniProt P06213)
- Construct: expressed in transfected cells; host or cells: HEK293
- Sequence (P06213 28-1370 isoform P06213-2 limits assumed): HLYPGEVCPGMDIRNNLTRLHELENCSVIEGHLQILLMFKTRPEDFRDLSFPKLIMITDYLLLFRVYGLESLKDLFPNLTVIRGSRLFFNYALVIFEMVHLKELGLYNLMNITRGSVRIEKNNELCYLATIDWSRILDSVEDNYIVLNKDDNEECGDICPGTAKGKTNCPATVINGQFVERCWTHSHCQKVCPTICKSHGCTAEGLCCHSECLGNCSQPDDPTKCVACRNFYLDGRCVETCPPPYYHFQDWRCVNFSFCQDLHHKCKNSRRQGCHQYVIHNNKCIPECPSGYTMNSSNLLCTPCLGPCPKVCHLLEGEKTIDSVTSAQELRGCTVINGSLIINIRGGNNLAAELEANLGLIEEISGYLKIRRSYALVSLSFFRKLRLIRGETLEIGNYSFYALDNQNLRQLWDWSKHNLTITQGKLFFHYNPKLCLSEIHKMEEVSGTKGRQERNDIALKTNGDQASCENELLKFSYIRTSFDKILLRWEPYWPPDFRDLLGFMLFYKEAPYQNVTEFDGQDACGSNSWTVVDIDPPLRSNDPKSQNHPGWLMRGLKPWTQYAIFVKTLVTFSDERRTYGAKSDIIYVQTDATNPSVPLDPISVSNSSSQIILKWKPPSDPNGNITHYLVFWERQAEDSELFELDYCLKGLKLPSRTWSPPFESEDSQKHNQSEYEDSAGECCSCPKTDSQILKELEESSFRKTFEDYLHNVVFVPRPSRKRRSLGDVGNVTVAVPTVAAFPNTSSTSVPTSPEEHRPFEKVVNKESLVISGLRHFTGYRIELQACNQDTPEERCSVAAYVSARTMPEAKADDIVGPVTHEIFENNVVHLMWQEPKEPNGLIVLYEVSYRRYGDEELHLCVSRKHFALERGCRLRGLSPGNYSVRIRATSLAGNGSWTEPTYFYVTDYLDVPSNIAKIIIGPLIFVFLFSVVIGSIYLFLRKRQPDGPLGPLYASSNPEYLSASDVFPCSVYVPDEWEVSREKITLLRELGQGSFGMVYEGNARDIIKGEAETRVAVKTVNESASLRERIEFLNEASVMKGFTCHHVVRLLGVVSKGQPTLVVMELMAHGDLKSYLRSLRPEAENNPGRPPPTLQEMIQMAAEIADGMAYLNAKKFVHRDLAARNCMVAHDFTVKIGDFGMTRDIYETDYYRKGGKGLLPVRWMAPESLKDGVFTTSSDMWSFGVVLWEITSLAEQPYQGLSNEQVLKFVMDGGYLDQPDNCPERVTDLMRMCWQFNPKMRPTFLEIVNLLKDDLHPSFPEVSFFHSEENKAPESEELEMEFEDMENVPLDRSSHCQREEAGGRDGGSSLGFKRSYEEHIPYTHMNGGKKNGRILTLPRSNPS
- Sequence (P06213 763-1382 partner limits assumed): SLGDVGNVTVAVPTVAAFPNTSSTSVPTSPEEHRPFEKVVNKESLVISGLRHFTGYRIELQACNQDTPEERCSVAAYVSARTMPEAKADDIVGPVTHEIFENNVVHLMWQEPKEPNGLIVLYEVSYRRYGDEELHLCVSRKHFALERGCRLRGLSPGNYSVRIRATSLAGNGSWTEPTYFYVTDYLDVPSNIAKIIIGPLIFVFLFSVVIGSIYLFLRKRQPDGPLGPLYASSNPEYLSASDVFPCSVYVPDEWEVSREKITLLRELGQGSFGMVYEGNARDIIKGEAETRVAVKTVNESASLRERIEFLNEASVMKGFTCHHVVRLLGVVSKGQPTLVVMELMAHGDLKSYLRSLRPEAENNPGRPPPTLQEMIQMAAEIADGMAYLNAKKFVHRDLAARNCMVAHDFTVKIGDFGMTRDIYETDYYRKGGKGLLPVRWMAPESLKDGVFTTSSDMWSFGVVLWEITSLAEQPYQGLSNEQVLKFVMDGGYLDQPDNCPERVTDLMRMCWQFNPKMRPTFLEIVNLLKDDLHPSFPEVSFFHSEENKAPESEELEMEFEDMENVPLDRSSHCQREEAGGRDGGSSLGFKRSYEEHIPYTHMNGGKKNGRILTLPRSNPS
- METHOD_DESCRIPTION: Receptor kinase activity (phosphorylation) assay, type A insulin receptor
- Format: cell-based
- EXPERIMENTAL_SETUP: Table 12
Square brackets hold non-standard residues; d marks the D form. Primed or numbered codes have the meaning given here. Ends that are not written are not given here. PEG4′ = PEG spacer of 4 units in the linker; PEG8′ = PEG spacer of 8 units in the linker
Documented % Insulin Activity IR-A across a set of substances
Return type: number; implicit unit %.

SUBSTANCE	SCALE_UNIT	% Insulin Activity IR-A
B1-PEG20K MIU-35 (GPEHLCGAHLVDALYLVCGDRGFYGYGSSSRRAPQTGIVDECCHRSCDLRRLENYCN; not fully specified (N-terminus); ends and bridges not checked; also: PEG20K at B1) [#39]	%	3.1
B2, C8-PEG10K di-PEGylated MIU-35 (GPEHLCGAELVDALYLVCGDRGFYGYGSSSRK(PEG 10 kDa)APQTGIVDECCFRSCDLRRLENYCN; not fully specified (N-terminus); ends and bridges not checked; also: PEG10K at B2) [MIU-67]	%	0.2

Q: Kindly state the measured % Insulin Activity IR-A obtained for B2, A14-PEG10K di-PEGylated MIU-35 (GPEHLCGAELVDALYLVCGDRGFYGYGSSSRKAPQTGIVDECCFRSCDLK(PEG 10 kDa)RLENYCN; not fully specified (N-terminus); ends and bridges not checked; also: PEG10K at B2) [MIU-69] with type A insulin receptor (IR-A) (Homo sapiens, UniProt P06213).
Ans: 1.0

Q: Would you kindly repeat that for C8-PEG20K B^1(H5,Y16,L17)25-PEG8-K-PEG4-A^1(N18,N21) (GPEHLCGAELVDALYLVCGDRGFY[PEG8′]K(PEG 20 kDa)[PEG4′]GIVDECCFRSCDLRRLENYCN; ends and bridges not checked) [#38] ?
Ans: 14.8

Q: Would you kindly repeat that for B2, B22-PEG10K di-PEGylated MIU-35 (GPEHLCGAELVDALYLVCGDK(PEG 10 kDa)GFYGYGSSSRKAPQTGIVDECCFRSCDLRRLENYCN; not fully specified (N-terminus); ends and bridges not checked; also: PEG10K at B2) [MIU-68] ?
Ans: 0.4

All values here come from patent US9593156B2.
